target: human TLR8 (Homo sapiens, UniProt Q9NR97); construct: expressed in transfected cells; host or cells: HEK293 (transient transfection); assay: TLR8 cellular reporter assay (HEK293, NFκB-luc); type: cell-based; conditions: HEK293 transiently transfected with TLR8 and NFκB-luc; 6 hours incubation; lowest effective concentration
Sequence (Q9NR97 27-1041): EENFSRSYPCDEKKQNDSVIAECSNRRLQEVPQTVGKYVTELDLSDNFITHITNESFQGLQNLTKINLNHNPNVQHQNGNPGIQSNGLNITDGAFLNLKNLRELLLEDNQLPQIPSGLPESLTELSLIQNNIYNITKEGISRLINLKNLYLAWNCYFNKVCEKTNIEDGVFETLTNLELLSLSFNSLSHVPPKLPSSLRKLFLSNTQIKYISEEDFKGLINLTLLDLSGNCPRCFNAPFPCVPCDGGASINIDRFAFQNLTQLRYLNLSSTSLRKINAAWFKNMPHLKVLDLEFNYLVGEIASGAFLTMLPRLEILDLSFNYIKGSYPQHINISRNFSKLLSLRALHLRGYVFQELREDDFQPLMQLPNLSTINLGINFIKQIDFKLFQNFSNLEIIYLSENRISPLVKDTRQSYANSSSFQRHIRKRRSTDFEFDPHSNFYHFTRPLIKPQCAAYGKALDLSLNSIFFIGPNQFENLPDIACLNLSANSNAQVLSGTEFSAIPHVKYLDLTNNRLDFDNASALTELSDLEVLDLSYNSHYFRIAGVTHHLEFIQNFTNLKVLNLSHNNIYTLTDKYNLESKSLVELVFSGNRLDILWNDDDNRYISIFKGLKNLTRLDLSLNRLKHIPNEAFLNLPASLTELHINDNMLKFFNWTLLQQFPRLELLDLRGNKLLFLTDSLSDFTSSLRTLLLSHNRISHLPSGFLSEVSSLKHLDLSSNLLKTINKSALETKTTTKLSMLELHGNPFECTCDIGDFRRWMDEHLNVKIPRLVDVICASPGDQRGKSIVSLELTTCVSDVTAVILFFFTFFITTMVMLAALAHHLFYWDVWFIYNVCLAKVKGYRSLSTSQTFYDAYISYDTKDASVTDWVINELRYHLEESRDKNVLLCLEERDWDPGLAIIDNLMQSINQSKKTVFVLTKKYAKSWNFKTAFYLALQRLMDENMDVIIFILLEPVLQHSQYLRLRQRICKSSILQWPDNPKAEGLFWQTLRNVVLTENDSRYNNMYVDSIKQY
Please enter criterion met where Human TLR 8 (LEC) is greater than or equal to 7 µM, and criterion not met where it is lower.

- molecule: "CCCCNc1nc(N)ncc1Cn1c(=O)ccc2ccccc21 [Compound 5]"
  assignedClass: "criterion not met"
- molecule: "CCCCNc1nc(N)ncc1Cn1cc(C)ccc1=O [Compound 3]"
  assignedClass: "criterion met"
- molecule: "CCCC(C)Nc1nc(N)ncc1Cn1ccccc1=O (centres unmarked) [Compound 11]"
  assignedClass: "criterion met"
- molecule: "CCCCCCNc1nc(N)ncc1Cn1ccccc1=O [Compound 9]"
  assignedClass: "criterion met"
- molecule: "CCCCC(C)Nc1nc(N)ncc1Cn1ccccc1=O (centres unmarked) [Compound 10]"
  assignedClass: "criterion met"
- molecule: "CCCCNc1nc(N)ncc1Cn1ccccc1=O [Compound 1]"
  assignedClass: "criterion met"
- molecule: "CCCCNc1nc(N)ncc1Cn1c(C)cccc1=O [Compound 2]"
  assignedClass: "criterion not met"
- molecule: "CCCCCNc1nc(N)ncc1Cn1ccccc1=O [Compound 8]"
  assignedClass: "criterion met"
- molecule: "CCCCNc1nc(N)ncc1Cn1ccc(C)cc1=O [Compound 4]"
  assignedClass: "criterion not met"
